systemTested: 5-hydroxytryptamine receptor 5A (Homo sapiens, UniProt P47898)
Sequence (P47898 whole entry, looked up): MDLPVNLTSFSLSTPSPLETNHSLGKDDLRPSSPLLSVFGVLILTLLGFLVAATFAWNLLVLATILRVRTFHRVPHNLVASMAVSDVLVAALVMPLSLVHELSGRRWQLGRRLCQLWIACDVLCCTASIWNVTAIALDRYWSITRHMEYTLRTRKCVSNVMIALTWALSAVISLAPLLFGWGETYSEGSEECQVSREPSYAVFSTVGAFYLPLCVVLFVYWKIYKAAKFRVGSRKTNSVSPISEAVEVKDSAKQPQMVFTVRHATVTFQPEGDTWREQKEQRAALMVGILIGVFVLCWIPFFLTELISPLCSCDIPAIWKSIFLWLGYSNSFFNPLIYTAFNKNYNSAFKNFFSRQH
readoutLabel: pKi
Expect pKi as a plain number equal to -log10 of the molar concentration.

Q: Data request, read-out pKi, for CC(N)Cc1c[nH]c2ccc3c(c12)CCCO3 (configuration not stated)
Ans: 5.72

----------
Test system: Monkey
assayNotes: Tested for the ability to lower IOP in conscious cynomolgus monkeys with laser-induced ocular hypertension after 1 hr postdose of the compound
Type: functional, Cercopithecidae, Eye
The following molecules are listed with their measured Reduction values.

A selection of reference data follows.
COc1ccc2[nH]cc(CC(C)N)c2c1 (stereo unspecified)    21.6%
C[C@@H](N)Cc1c[nH]c2ccc3c(c12)CCCO3    <12.7%
COc1cc(C[C@@H](C)N)c(OC)cc1I    11%
CC(N)Cc1cn(C)c2ccc3c(c12)CCCO3 (stereo unspecified)    <18.8%
CC(N)Cc1c[nH]c2ccc3c(c12)CCCO3 (stereo unspecified)    <16%

Q: Data request, read-out Reduction, for C[C@H](N)Cc1c[nH]c2ccc3c(c12)CCCO3
Ans: <18.1%

----------
systemTested: Alpha-1A adrenergic receptor (Rattus norvegicus)
Sequence (P43140 whole entry): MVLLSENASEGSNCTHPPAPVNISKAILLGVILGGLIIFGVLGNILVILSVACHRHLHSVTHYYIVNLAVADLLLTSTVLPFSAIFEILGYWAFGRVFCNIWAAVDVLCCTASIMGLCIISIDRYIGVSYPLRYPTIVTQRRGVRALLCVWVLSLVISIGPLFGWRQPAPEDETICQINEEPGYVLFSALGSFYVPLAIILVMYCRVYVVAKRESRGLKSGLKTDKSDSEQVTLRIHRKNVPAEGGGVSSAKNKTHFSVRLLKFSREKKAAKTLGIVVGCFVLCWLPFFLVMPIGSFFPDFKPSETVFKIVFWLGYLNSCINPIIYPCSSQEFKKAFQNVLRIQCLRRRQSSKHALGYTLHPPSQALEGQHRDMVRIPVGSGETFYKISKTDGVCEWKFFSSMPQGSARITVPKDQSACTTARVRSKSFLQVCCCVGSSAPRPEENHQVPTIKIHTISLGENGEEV
assayNotes: Inhibitory constant against Alpha-1A adrenergic receptor using [3H]-7-MeO prazosin radioligand
pKi: −log10 of the molar value.
readoutLabel: pKi

Q: Data request, read-out pKi, for CC(N)Cc1c[nH]c2ccc3c(c12)CCCO3 (stereo unspecified)
Ans: < 4.52

----------
systemTested: 5-hydroxytryptamine receptor 2A (Rattus norvegicus)
assayNotes: In vitro efficacy against rat 5-hydroxytryptamine 2A receptor was determined by using CA+ assay (Emax)
readoutLabel: Efficacy
Quick note: number first, unit second.

A selection of reference data follows.
CN(C)CCc1c[nH]c2ccc3c(c12)CCCO3    47%
C[C@H](N)Cc1c[nH]c2ccc3c(c12)CCCO3    103%
Cn1cc(CCN)c2c3c(ccc21)OCCC3    70%
CC(N)Cc1cn(C)c2ccc3c(c12)CCCO3 (stereo not given)    79%
CC(N)Cc1c[nH]c2ccc(O)cc12 (stereo not given)    99%
C[C@@H](N)Cc1c[nH]c2ccc3c(c12)CCCO3    71%
COc1cc(C[C@@H](C)N)c(OC)cc1I    33%
COc1ccc2[nH]cc(CC(C)N)c2c1 (stereo not given)    96%
CC(N)Cc1c[nH]c2ccc3c(c12)CCCO3 (stereo not given)    97%

Note: attention shifts to another entry.
Q: API: value(readout=Efficacy, system=5-hydroxytryptamine receptor 2A (Rattus norvegicus)) for record NCCc1c[nH]c2ccc3c(c12)CCCO3
Ans: 99%

----------
The following compounds are listed with their measured Efficacy values.
systemTested: UniProtKB P14842
Sequence (P14842 whole entry): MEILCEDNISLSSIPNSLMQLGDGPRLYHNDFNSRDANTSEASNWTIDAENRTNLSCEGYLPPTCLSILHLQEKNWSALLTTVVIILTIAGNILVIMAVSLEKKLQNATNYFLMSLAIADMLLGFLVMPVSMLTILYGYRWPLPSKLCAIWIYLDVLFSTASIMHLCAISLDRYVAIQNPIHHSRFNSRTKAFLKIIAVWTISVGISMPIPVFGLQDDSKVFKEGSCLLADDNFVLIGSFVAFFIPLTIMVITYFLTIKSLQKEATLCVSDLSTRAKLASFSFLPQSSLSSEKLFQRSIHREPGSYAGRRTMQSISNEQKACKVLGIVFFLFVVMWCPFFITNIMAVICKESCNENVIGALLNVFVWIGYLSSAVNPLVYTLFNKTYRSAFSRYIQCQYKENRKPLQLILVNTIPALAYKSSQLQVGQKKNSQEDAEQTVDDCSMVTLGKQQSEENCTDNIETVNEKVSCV
assayNotes: In vitro efficacy against rat 5-hydroxytryptamine 2A receptor determined by using PI assay (Emax)
Just the number in %, nothing appended.

A selection of reference data follows.
CC(N)Cc1c[nH]c2ccc(O)cc12 (centres undefined)    98
C[C@H](N)Cc1c[nH]c2ccc3c(c12)CCCO3    90
C[C@@H](N)Cc1c[nH]c2ccc3c(c12)CCCO3    83
Cn1cc(CCN)c2c3c(ccc21)OCCC3    96
CC(N)Cc1cn(C)c2ccc3c(c12)CCCO3 (centres undefined)    102
CC(N)Cc1c[nH]c2ccc3c(c12)CCCO3 (centres undefined)    81

Q: Data request, read-out Efficacy, for NCCc1c[nH]c2ccc3c(c12)CCCO3
Ans: 99

Q: Data request, read-out Efficacy, for CN(C)CCc1c[nH]c2ccc3c(c12)CCCO3
Ans: 63

Q: Data request, read-out Efficacy, for COc1ccc2[nH]cc(CC(C)N)c2c1 (centres undefined)
Ans: 107
